target: Flt 4(h) (Homo sapiens); construct: purchased Upstate Biotechnology (Dundee, UK), KinaseProfiler service; experiment: Upstate KinaseProfiler enzyme assay, Flt 4; assay type: biochemical; conditions: 500 nM compound; read-out: Percent inhibition at 500 nM Flt 4(h)
Sequence (P35916 25-1363): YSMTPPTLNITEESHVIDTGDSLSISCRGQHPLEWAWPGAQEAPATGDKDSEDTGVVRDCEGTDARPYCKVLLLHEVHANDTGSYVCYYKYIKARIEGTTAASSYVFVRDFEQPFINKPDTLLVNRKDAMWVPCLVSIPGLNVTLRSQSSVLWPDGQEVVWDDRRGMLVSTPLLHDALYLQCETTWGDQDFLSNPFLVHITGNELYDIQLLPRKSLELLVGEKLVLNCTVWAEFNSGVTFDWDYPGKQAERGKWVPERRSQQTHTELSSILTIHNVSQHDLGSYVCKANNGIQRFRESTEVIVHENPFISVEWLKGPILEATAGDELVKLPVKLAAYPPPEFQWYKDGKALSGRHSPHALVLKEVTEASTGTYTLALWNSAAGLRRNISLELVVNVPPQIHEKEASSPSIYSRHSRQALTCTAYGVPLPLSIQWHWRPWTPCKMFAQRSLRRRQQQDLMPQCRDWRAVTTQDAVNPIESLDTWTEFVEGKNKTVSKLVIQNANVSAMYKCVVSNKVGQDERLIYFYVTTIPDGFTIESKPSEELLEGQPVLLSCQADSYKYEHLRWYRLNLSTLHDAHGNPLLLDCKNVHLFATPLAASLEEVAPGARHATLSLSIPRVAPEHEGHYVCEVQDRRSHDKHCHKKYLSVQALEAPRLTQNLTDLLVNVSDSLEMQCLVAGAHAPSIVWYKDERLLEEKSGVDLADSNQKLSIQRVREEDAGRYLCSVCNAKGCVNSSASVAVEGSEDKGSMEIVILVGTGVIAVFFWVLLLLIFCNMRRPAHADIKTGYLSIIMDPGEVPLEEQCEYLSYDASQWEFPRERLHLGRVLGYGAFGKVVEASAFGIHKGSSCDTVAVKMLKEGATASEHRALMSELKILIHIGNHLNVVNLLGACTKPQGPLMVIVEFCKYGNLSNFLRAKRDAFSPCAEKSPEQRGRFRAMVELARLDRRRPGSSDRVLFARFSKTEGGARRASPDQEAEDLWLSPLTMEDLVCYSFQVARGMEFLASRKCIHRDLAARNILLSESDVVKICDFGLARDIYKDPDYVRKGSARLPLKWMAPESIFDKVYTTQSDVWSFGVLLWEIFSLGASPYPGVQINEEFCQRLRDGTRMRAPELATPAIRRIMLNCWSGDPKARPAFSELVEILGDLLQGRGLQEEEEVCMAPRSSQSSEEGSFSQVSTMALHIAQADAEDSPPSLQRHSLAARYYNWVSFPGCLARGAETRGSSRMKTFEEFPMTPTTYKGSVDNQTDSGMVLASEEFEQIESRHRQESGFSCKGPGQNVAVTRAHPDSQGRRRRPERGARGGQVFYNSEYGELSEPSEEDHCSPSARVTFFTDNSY
Listed compounds paired with reported inhibition at 0.5 µM

>  <compound>
C=CC(=O)Nc1ccc(Sc2ccnc(Nc3ccc(S(N)(=O)=O)c(OC)c3)n2)cc1 [Compound 374]

>  <unit-abbreviation>
%

>  <inhibition at 0.5 µM>
100

$$$$
>  <compound>
C=CC(=O)Nc1ccc(Sc2ccnc(Nc3cccc(S(N)(=O)=O)c3)n2)cc1 [Compound 364]

>  <unit-abbreviation>
%

>  <inhibition at 0.5 µM>
99

$$$$
>  <compound>
C=CC(=O)Nc1ccc(Sc2ccnc(Nc3ccc(C(=O)OC)cc3)n2)cc1 [Compound 357]

>  <unit-abbreviation>
%

>  <inhibition at 0.5 µM>
99

$$$$
>  <compound>
C=CC(=O)Nc1ccc(Sc2nc(Nc3cccc(CO)c3)ncc2C)cc1 [Compound 280]

>  <unit-abbreviation>
%

>  <inhibition at 0.5 µM>
100

$$$$
>  <compound>
C=CC(=O)Nc1ccc(Sc2nc(Nc3cccc(N4CCOCC4)c3)ncc2F)cc1 [Compound 267]

>  <unit-abbreviation>
%

>  <inhibition at 0.5 µM>
100

$$$$
>  <compound>
O=C(/C=C/Cl)Nc1cccc(Sc2ccnc(Nc3ccc(N4CCOCC4)cc3)n2)c1 [Compound 340]

>  <unit-abbreviation>
%

>  <inhibition at 0.5 µM>
95

$$$$
>  <compound>
C=CC(=O)N1CCCc2cc(Sc3nc(Nc4ccc(N5CCOCC5)cc4)ncc3C)ccc21 [Compound 168]

>  <unit-abbreviation>
%

>  <inhibition at 0.5 µM>
99

$$$$
>  <compound>
C=CC(=O)Nc1ccc(Sc2nc(Nc3ccc(OC)c(OC)c3)ncc2C)cc1 [Compound 241]

>  <unit-abbreviation>
%

>  <inhibition at 0.5 µM>
100

$$$$
